Listed here are binders together with their documented Phage binding ELISA CD28 scFv signal.
Measurement target: Anti-CD28 scFv (VH-linker 1-VL)
Sequence (scFv, as listed by the source): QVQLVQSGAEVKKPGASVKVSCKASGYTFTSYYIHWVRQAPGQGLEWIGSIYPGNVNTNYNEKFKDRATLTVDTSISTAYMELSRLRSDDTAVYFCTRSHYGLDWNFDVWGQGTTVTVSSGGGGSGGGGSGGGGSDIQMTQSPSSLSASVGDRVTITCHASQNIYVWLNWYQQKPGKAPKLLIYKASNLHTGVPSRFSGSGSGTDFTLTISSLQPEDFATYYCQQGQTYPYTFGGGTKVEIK
Protocol details: phage ELISA: biotinylated anti-CD28 scFv on neutravidin plate, clonal phage supernatant, anti-M13-HRP;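 further: before phage addition, wells were preincubated either with soluble CD28 protein in blocking buffer or with blocking buffer only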
Measured endpoint: Phage binding ELISA CD28 scFv signal

> print(dat)
                                     binder                     measured.endpoint  number
1  IVWCPTTQWNRCAT (Clonal phage from the Peptide-9 library) [Phage-434]  Phage binding ELISA CD28 scFv signal   0.067
2  MAWCPWAQFDECLA (Clonal phage from the Peptide-9 library) [Phage-433]  Phage binding ELISA CD28 scFv signal   0.071
3  EDWCPTDVWPYCFS (Clonal phage from the Peptide-9 library) [Phage-450]  Phage binding ELISA CD28 scFv signal   0.711
4  ITQCPSTMWNRCSV (Clonal phage from the Peptide-9 library) [Phage-424]  Phage binding ELISA CD28 scFv signal   0.098
